- Assay Target: mu opioid receptor (CHO-hMOR cell membranes) (Homo sapiens, UniProt P35372)
- Construct: purchased Receptor Biology, Inc. (Baltimore, Md.); host or cells: CHO cells (recombinant expression)
- Sequence (P35372 whole entry): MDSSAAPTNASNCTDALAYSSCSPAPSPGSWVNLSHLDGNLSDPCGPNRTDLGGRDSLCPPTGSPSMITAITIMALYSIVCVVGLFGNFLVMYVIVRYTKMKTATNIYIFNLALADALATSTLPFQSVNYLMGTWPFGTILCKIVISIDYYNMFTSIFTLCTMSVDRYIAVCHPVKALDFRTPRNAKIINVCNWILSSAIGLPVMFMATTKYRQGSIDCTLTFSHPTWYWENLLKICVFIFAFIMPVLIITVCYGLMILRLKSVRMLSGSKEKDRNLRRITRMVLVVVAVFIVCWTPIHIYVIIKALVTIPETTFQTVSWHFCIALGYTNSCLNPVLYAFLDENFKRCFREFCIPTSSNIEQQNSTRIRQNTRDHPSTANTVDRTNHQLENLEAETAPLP
- Test Method Notes: Mu Opioid Receptor Functional Assay: [35S]GTPγS Binding in CHO-hMOR Cell Membranes, Versions 1 and 2
- Assay type: biochemical
- Assay Conditions: version 1, % inhibition of agonist-stimulated GTPγS binding
So I've got a bunch of molecules here, and I need their MOR GTP binding assay_v1 (% I) values.
Hi! Could you send only the number? It should be in %, unit omitted.

query: Query the reported MOR GTP binding assay_v1 (% I) for mu opioid receptor (CHO-hMOR cell membranes) (Homo sapiens, UniProt P35372); item: C[C@H](c1nc(-c2ccccc2)c[nH]1)N(C)C(=O)[C@@H](N)Cc1ccc(C(N)=O)cc1 [Cpd 203]
result: 20.00

query: Query the reported MOR GTP binding assay_v1 (% I) for mu opioid receptor (CHO-hMOR cell membranes) (Homo sapiens, UniProt P35372); item: Cc1cc(O)cc(C)c1C[C@H](N)C(=O)N[C@H](C)c1nc(-c2ccccc2)c[nH]1 [Cpd 208]
result: 1.00

query: Query the reported MOR GTP binding assay_v1 (% I) for mu opioid receptor (CHO-hMOR cell membranes) (Homo sapiens, UniProt P35372); item: C[C@H](c1nc(-c2ccccc2)c[nH]1)N(Cc1ccccc1)C(=O)[C@@H](N)Cc1ccc(O)cc1 [Cpd 221]
result: 13.00

query: Query the reported MOR GTP binding assay_v1 (% I) for mu opioid receptor (CHO-hMOR cell membranes) (Homo sapiens, UniProt P35372); item: Cc1cc(O)cc(C)c1C[C@H](N)C(=O)N[C@@H](Cc1ccccc1)c1nc(-c2ccccc2)c[nH]1 [Cpd 177]
result: 23.00

query: Query the reported MOR GTP binding assay_v1 (% I) for mu opioid receptor (CHO-hMOR cell membranes) (Homo sapiens, UniProt P35372); item: Cc1cc(O)cc(C)c1C[C@H](N)C(=O)N(C)[C@@H](C)c1nc(Cc2ccccc2)c[nH]1 [Cpd 205]
result: 1.00

query: Query the reported MOR GTP binding assay_v1 (% I) for mu opioid receptor (CHO-hMOR cell membranes) (Homo sapiens, UniProt P35372); item: Cc1cc(O)cc(C)c1C[C@H](N)C(=O)N(Cc1nc(-c2ccc(C(F)(F)F)cc2)c(C)[nH]1)C(C)C [Cpd 149]
result: 1.00

query: Query the reported MOR GTP binding assay_v1 (% I) for mu opioid receptor (CHO-hMOR cell membranes) (Homo sapiens, UniProt P35372); item: CCN(C(=O)[C@@H](N)Cc1c(C)cc(O)cc1C)[C@H](c1nc(-c2ccccc2)c[nH]1)C(C)C [Cpd 170]
result: 26.00

* * *

- Assay Target: human mu opioid receptor (Homo sapiens)
- Construct: purchased Perkin Elmer RBHOMM400UA; host or cells: Chinese Hamster Ovary cells (recombinant expression)
- Sequence (P35372 whole entry): as the sequence (P35372 whole entry) above
- Test Method Notes: Human Mu Opioid Receptor Binding Assay (CHO membranes, 3H-Damgo)
- Assay Conditions: read-out: hKi μ
So I've got a bunch of compounds here, and I need their pKi values.
API: returns pKi as number; meaning -log10 of concentration in mol/L.

query: Could you tell me which pKi is on file for Cc1cc(O)cc(C)c1CC(N)C(=O)Oc1cc(C)c(C[C@H](N)C(=O)N(C(C)C)[C@@H](CC(C)C)c2nc(-c3ccccc3)c[nH]2)c(C)c1 (stereo partly shown) ?
result: 7.24

query: Could you tell me which pKi is on file for Cc1cc(C(N)=O)cc(C)c1C[C@H](N)C(=O)N(C)[C@H](C)c1nc(-c2ccccc2)c[nH]1 ?
result: 8.89

query: Could you tell me which pKi is on file for Cc1cc(O)cc(C)c1C[C@H](N)C(=O)N(Cc1nc(-c2ccc(C#N)cc2)c(C)[nH]1)C(C)C ?
result: 8.80

query: Could you tell me which pKi is on file for Cc1cc(O)cc(C)c1C[C@H](N)C(=O)N(Cc1nc(-c2ccc(C(=O)O)cc2)c(C)[nH]1)C(C)C ?
result: 7.33

query: Could you tell me which pKi is on file for Cc1cc(O)cc(C)c1C[C@H](N)C(=O)N(Cc1ccoc1)[C@@H](C)c1nc(-c2ccccc2)c[nH]1 ?
result: 8.74

* * *

So I've got a bunch of compounds here, and I need their Ki values.
- Assay Target: delta opioid receptor (Rattus norvegicus, UniProt P33533)
- Construct: from tissue; host or cells: forebrain of male Wistar rats
- Sequence (P33533 whole entry): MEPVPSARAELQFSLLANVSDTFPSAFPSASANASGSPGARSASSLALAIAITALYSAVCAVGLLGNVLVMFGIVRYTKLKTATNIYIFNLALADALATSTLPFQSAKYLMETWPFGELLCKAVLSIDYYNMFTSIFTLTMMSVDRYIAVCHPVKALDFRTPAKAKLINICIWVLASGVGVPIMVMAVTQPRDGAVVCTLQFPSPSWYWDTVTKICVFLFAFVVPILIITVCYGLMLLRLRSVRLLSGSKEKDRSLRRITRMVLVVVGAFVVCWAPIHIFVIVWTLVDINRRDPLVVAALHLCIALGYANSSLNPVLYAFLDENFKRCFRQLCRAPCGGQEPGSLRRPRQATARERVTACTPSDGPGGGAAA
- Test Method Notes: Rat Brain Delta Opioid Receptor Binding Assay ([3H]DPDPE)
- Assay Conditions: rat forebrain membranes, margin of error 10-20%, read-out: r Ki δ
- Procedure: Male, Wistar rats (150-250 g, VAF, Charles River, Kingston, N.Y.) are killed by cervical dislocation, and their brains removed and placed immediately in ice cold Tris HCl buffer (50 mM, pH 7.4). […] To each sample area 2×50 μL of Betaplate Scint scintillation fluid (LKB) is added and analyzed on a LKB (Wallac) 1205 BetaPlate liquid scintillation counter. […]
Lab note: write values as number then unit, every time.

query: Could you tell me which Ki is on file for Cc1cc(C(N)=O)cc(C)c1C[C@H](N)C(=O)N(Cc1cccc(-c2nnn[nH]2)c1)[C@@H](C)c1nc(-c2ccccc2)c[nH]1 ?
result: 0.18 nM

query: Could you tell me which Ki is on file for Cc1cc(C(N)=O)cc(C)c1C[C@H](N)C(=O)N(Cc1cccc(C(=O)O)c1)[C@@H](C)c1nc(-c2ccc(Cl)cc2)c(C)[nH]1 ?
result: 0.08 nM

query: Could you tell me which Ki is on file for Cc1cc(O)cc(C)c1C[C@H](N)C(=O)N(Cc1nc(-c2ccccc2)c[nH]1)C1CCCCC1 ?
result: 13.8 nM

query: Could you tell me which Ki is on file for Cc1cc(O)cc(C)c1C[C@H](N)C(=O)N[C@@H](Cc1ccccc1)c1nc(-c2ccccc2)c[nH]1 ?
result: 255 nM

* * *

- Assay Target: mu opioid receptor (Rattus norvegicus, UniProt P33535)
- Construct: from tissue; host or cells: forebrain of male Wistar rats
- Sequence (P33535 whole entry): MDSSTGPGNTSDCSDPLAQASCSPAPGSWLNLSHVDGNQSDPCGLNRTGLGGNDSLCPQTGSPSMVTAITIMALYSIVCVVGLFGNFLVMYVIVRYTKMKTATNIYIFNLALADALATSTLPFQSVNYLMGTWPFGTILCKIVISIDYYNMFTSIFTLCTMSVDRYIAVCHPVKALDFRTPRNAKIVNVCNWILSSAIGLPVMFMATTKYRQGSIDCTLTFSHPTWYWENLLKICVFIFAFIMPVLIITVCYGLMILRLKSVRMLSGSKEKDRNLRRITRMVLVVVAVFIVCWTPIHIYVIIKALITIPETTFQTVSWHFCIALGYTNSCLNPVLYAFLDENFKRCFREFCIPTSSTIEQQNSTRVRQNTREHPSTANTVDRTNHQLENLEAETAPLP
- Test Method Notes: Rat Brain Mu Opioid Receptor Binding Assay (and Version 2a, [3H]DAMGO)
- Assay Conditions: rat forebrain membranes, margin of error 10-20%, read-out: r Ki μ
- Method: Male, Wistar rats (150-250 g, VAF, Charles River, Kingston, N.Y.) are killed by cervical dislocation, and their brains removed and placed immediately in ice cold Tris HCl buffer (50 mM, pH 7.4). […] To each sample area 2×50 μL of Betaplate Scint scintillation fluid (LKB) is added and analyzed on a LKB (Wallac) 1205 BetaPlate liquid scintillation counter. […]
pKi: −log10 of the molar value.
Everything with pKi lower than 8 is not satisfied; everything else, including exactly 8, is satisfied.

query: Is pKi at least 8? Consider CC(C)C[C@@H](c1nc(-c2ccccc2)c[nH]1)N(C)C(=O)[C@@H](N)Cc1cccc(C#N)c1
result: not satisfied

query: Is pKi at least 8? Consider Cc1cc(O)cc(C)c1C[C@H](N)C(=O)N[C@@H](Cc1cccc(C(N)=O)c1)c1nc(-c2ccccc2)c[nH]1
result: not satisfied

query: Is pKi at least 8? Consider COC(=O)c1cc(CN(C(=O)[C@H](N)Cc2ccc(C(N)=O)cc2)[C@H](C)c2nc(-c3ccccc3)c[nH]2)ccc1OC
result: not satisfied

query: Is pKi at least 8? Consider CNC(=O)c1cc(C)c(C[C@H](N)C(=O)N(C)[C@H](C)c2nc(-c3ccccc3)c[nH]2)c(C)c1
result: not satisfied

query: Is pKi at least 8? Consider N[C@@H](Cc1ccc(O)cc1)C(=O)N(Cc1nc(-c2ccccc2)c[nH]1)CC1CC1
result: not satisfied

query: Is pKi at least 8? Consider CCN(C(=O)[C@@H](N)Cc1c(C)cc(O)cc1C)[C@H](c1nc(-c2ccccc2)c[nH]1)C(C)C
result: satisfied

query: Is pKi at least 8? Consider COc1ccc(CN(C(=O)[C@@H](N)Cc2ccc(C(N)=O)cc2)[C@@H](C)c2nc(-c3ccccc3)c[nH]2)cc1C(=O)O
result: satisfied

* * *

- Assay Target: mu opioid receptor (CHO-hMOR cell membranes) (Homo sapiens, UniProt P35372)
- Construct: purchased Receptor Biology, Inc. (Baltimore, Md.); host or cells: CHO cells (recombinant expression)
- Test Method Notes: Mu Opioid Receptor Functional Assay: [35S]GTPγS Binding in CHO-hMOR Cell Membranes, Versions 1 and 2
- Type: biochemical
- Assay Conditions: version 2, % inhibition of agonist-stimulated GTPγS binding
So I've got a bunch of compounds here, and I need their MOR GTP binding assay_v2 (% I) values.
Hi! Could you send only the number? It should be in %, unit omitted.

query: Could you tell me which MOR GTP binding assay_v2 (% I) is on file for COc1ccc(CN(C(=O)[C@@H](N)Cc2ccc(O)cc2)[C@@H](C)c2nc(-c3ccccc3)c[nH]2)cc1C(=O)O ?
result: 5.88

query: Could you tell me which MOR GTP binding assay_v2 (% I) is on file for COC(=O)c1ccnc(CN(C(=O)[C@@H](N)Cc2c(C)cc(C(N)=O)cc2C)[C@@H](C)c2nc(-c3ccccc3)c[nH]2)c1 ?
result: 35.00

query: Could you tell me which MOR GTP binding assay_v2 (% I) is on file for Cc1cc(C(N)=O)cc(C)c1C[C@H](N)C(=O)N(Cc1ccc(C(=O)O)nc1)[C@@H](C)c1nc(-c2ccccc2)c[nH]1 ?
result: 42.00

Values were extracted from patent US10213415B2.
